# TARGET_ENTITY: Follicle Stimulating Hormone Receptor (FSHR) (Homo sapiens)
# Construct: HA (N); expressed in transfected cells; host or cells: CHO-K1, transient transfection, pHM6 vector (CMV promoter)
# Sequence (P23945 18-695): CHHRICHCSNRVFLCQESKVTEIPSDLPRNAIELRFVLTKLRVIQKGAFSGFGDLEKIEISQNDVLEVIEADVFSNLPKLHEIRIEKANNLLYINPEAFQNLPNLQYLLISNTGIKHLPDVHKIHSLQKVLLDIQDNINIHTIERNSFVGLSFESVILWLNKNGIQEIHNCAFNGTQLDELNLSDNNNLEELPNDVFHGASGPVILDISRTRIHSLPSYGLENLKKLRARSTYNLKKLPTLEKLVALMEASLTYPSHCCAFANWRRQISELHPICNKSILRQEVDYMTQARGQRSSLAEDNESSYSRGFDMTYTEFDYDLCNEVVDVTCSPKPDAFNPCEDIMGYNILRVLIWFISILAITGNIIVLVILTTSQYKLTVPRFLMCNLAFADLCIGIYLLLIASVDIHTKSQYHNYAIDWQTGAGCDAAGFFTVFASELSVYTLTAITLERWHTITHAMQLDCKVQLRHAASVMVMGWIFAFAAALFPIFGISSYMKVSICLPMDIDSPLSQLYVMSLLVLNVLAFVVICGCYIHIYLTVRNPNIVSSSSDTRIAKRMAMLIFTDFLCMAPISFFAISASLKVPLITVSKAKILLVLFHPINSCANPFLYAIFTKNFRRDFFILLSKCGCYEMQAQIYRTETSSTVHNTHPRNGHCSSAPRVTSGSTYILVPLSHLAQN
# METHOD_SUMMARY: HTRF cAMP agonist assay, FSHR, transiently transfected CHO-K1 cells
# Format: cell-based
# TEST_CONDITIONS: CHO-K1 cells transiently expressing human FSHR, read-out: IC50 FSHR LANCE CAMP
So basically: is IC50 under 90 nM? Then TRUE. Not under? Then FALSE.

Some entries whose results are on file:
>  <MOLECULE>
COc1cc2c(cc1-c1cncc(C(N)=O)c1)-c1c(c(C(=O)N3CCNC(=O)C3(C)C)nn1-c1ccncn1)CC2 [Compound 15-05]

>  <TARGET_ENTITY>
Follicle Stimulating Hormone Receptor (FSHR) (Homo sapiens)

>  <LABEL_VALUE>
FALSE

$$$$
>  <MOLECULE>
COc1cc2c(cc1-c1cncc(C(N)=O)c1)-c1c(c(C(=O)N3CC4CC3CN4)nn1-c1cc(Cl)cc(Cl)c1)CC2 (stereo not shown) [Compound 8-33]

>  <TARGET_ENTITY>
Follicle Stimulating Hormone Receptor (FSHR) (Homo sapiens)

>  <LABEL_VALUE>
FALSE

$$$$
>  <MOLECULE>
COc1cc2c(cc1Br)-c1c(c(C(=O)N(C)C(C)(C)C)nn1-c1cc(Cl)cc(Cl)c1)CC2 [Compound 6-02A]

>  <TARGET_ENTITY>
Follicle Stimulating Hormone Receptor (FSHR) (Homo sapiens)

>  <LABEL_VALUE>
FALSE

$$$$

Next item in the queue.
For COc1cc2c(cc1-c1cncc(C(N)=O)c1)-c1c(c(C(=O)N3CCNC(=O)C3(C)C)nn1-c1cc(Cl)cc(Cl)c1)SC2 [Compound 12-16] , is the recorded IC50 below the cut-off of 90 nM?
TRUE
